System: Hepatitis B virus
EXPERIMENTAL_PROTOCOL: Fold resistance, ratio of Lamivudine -adenofir-resistant with HBV reverse transcriptase V173L/L180M/A181V/M204V mutant to wildtype HBV genotype E
Format: functional
EXPERIMENTAL_ENDPOINT: Ratio EC50

Please review the following examples before continuing.
{"columns": ["COMPOUND", "Ratio EC50"],
 "data": [
  ["Nc1cc(OCCOCP(=O)(O)O)nc(N)n1", 3.2],
  ["CC(C)(C)C(=O)OCOP(=O)(COCCn1cnc2c(N)ncnc21)OCOC(=O)C(C)(C)C", 4],
  ["Nc1ccn([C@@H]2CS[C@H](CO)O2)c(=O)n1", ">1000"],
  ["C[C@H](Cn1cnc2c(N)ncnc21)OCP(=O)(O)O [TENOFOVIR ANHYDROUS]", 1.8]
]}

Attention now turns to another entry.
# Ratio EC50 lookup, item "C=C1[C@H](CO)[C@@H](O)C[C@@H]1n1cnc2c(=O)[nH]c(N)nc21.O"
>=800

---

Tested on: Hepatitis B virus
EXPERIMENTAL_PROTOCOL: Antiviral activity against lamivudine-adefovir-resistant HBV with reverse transcriptase L180M/M204V/N236T mutant assessed as inhibition of replication
Type: functional, organism-based
EXPERIMENTAL_ENDPOINT: EC50 (µM)
Write the number in µM without appending the unit.

Please review the following examples before continuing.
{"columns": ["MOLECULE", "RESULT"],
 "data": [
  ["C[C@H](Cn1cnc2c(N)ncnc21)OCP(=O)(O)O [TENOFOVIR ANHYDROUS]", 45.5],
  ["Nc1cc(OCCOCP(=O)(O)O)nc(N)n1", 5.7],
  ["CC(C)(C)C(=O)OCOP(=O)(COCCn1cnc2c(N)ncnc21)OCOC(=O)C(C)(C)C", 100]
]}

Attention now turns to another entry.
# EC50 lookup, item "C=C1[C@H](CO)[C@@H](O)C[C@@H]1n1cnc2c(=O)[nH]c(N)nc21.O"
5

---

Entries and their Ratio EC50 values follow.
Test system: Hepatitis B virus
EXPERIMENTAL_PROTOCOL: Fold resistance, ratio of lamivudine -adenofir-resistant with HBV reverse transcriptase V173L/L180M/A181V/M204V/N236T mutant to wild-type HBV genotype E
Format: functional
Hey, just send me the number, nothing else.

Please review the following examples before continuing.
{"columns": ["MOLECULE", "RESULT"],
 "data": [
  ["C[C@H](Cn1cnc2c(N)ncnc21)OCP(=O)(O)O [TENOFOVIR ANHYDROUS]", 1.8],
  ["CC(C)(C)C(=O)OCOP(=O)(COCCn1cnc2c(N)ncnc21)OCOC(=O)C(C)(C)C [ADEFOVIR DIPIVOXIL]", 7.7],
  ["Nc1cc(OCCOCP(=O)(O)O)nc(N)n1", 2.1]
]}

Attention now turns to another entry.
# Ratio EC50 lookup, item C=C1[C@H](CO)[C@@H](O)C[C@@H]1n1cnc2c(=O)[nH]c(N)nc21.O [ENTECAVIR]
461

---

Entries and their Ratio EC50 values follow.
Test system: Hepatitis B virus
EXPERIMENTAL_PROTOCOL: Fold resistance, ratio of Lamivudine -adenofir-resistant with HBV reverse transcriptase V173L/L180M/A181V/N236T mutant to wildtype HBV genotype E
Type: functional
Hey, just send me the number, nothing else.

Please review the following examples before continuing.
{"columns": ["COMPOUND", "TARGET_DESC", "Ratio EC50"],
 "data": [
  ["C[C@H](Cn1cnc2c(N)ncnc21)OCP(=O)(O)O [TENOFOVIR ANHYDROUS]", "Hepatitis B virus", 1.1],
  ["C=C1[C@H](CO)[C@@H](O)C[C@@H]1n1cnc2c(=O)[nH]c(N)nc21.O", "Hepatitis B virus", 9]
]}

Attention now turns to another entry.
# Ratio EC50 lookup, item "Nc1cc(OCCOCP(=O)(O)O)nc(N)n1"
5.1

---

Entries and their Ratio EC50 values follow.
Tested on: Hepatitis B virus
EXPERIMENTAL_PROTOCOL: Fold resistance, ratio of EC50 for adenofir-resistant HBV with reverse transcriptase N236T mutant to EC50 for wild-type HBV
Assay type: functional
Hey, just send me the number, nothing else.

{"columns": ["MOLECULE", "EXPERIMENTAL_ENDPOINT", "RESULT"],
 "data": [
  ["Nc1ccn([C@@H]2CS[C@H](CO)O2)c(=O)n1", "Ratio EC50", 1.06]
]}

# Ratio EC50 lookup, item "CC(C)(C)C(=O)OCOP(=O)(COCCn1cnc2c(N)ncnc21)OCOC(=O)C(C)(C)C"
3.2

# Ratio EC50 lookup, item "Nc1cc(OCCOCP(=O)(O)O)nc(N)n1"
1.1

# Ratio EC50 lookup, item C[C@H](Cn1cnc2c(N)ncnc21)OCP(=O)(O)O [TENOFOVIR ANHYDROUS]
4.5

# Ratio EC50 lookup, item "C=C1[C@H](CO)[C@@H](O)C[C@@H]1n1cnc2c(=O)[nH]c(N)nc21.O"
0.88

---

Entries and their Ratio EC50 values follow.
System: Hepatitis B virus
EXPERIMENTAL_PROTOCOL: Fold resistance, ratio of EC50 for lamivudine-adefovir-resistant HBV with reverse transcriptase L180M/M204V/N236T mutant to EC50 for wild-type HBV
Type: functional
Hey, just send me the number, nothing else.

{"columns": ["MOLECULE", "RESULT"],
 "data": [
  ["C=C1[C@H](CO)[C@@H](O)C[C@@H]1n1cnc2c(=O)[nH]c(N)nc21.O [ENTECAVIR]", 6.25]
]}

# Ratio EC50 lookup, item C[C@H](Cn1cnc2c(N)ncnc21)OCP(=O)(O)O [TENOFOVIR ANHYDROUS]
4.4

# Ratio EC50 lookup, item CC(C)(C)C(=O)OCOP(=O)(COCCn1cnc2c(N)ncnc21)OCOC(=O)C(C)(C)C [ADEFOVIR DIPIVOXIL]
6.3

# Ratio EC50 lookup, item "Nc1cc(OCCOCP(=O)(O)O)nc(N)n1"
1.4

---

Tested on: Hepatitis B virus
EXPERIMENTAL_PROTOCOL: Antiviral activity against wild type HBV genotype H assessed as inhibition of replication
Assay type: functional, organism-based
EXPERIMENTAL_ENDPOINT: EC50 (µM)
Write the number in µM without appending the unit.

Please review the following examples before continuing.
{"columns": ["COMPOUND", "EXPERIMENTAL_ENDPOINT", "UNIT_OF_MEASURE", "RESULT"],
 "data": [
  ["C[C@H](Cn1cnc2c(N)ncnc21)OCP(=O)(O)O [TENOFOVIR ANHYDROUS]", "EC50", "µM", 13.6],
  ["Nc1cc(OCCOCP(=O)(O)O)nc(N)n1", "EC50", "µM", 4.4],
  ["C=C1[C@H](CO)[C@@H](O)C[C@@H]1n1cnc2c(=O)[nH]c(N)nc21.O [ENTECAVIR]", "EC50", "µM", 0.09]
]}

# EC50 lookup, item Nc1ccn([C@@H]2CS[C@H](CO)O2)c(=O)n1 [LAMIVUDINE]
0.64

# EC50 lookup, item CC(C)(C)C(=O)OCOP(=O)(COCCn1cnc2c(N)ncnc21)OCOC(=O)C(C)(C)C [ADEFOVIR DIPIVOXIL]
13.6

---

EXPERIMENTAL_PROTOCOL: Effect on cell viability in human Huh7 cells
Type: cell-based, Huh-7
EXPERIMENTAL_ENDPOINT: CC50 (µM)
Write the number in µM without appending the unit.

{"columns": ["MOLECULE", "CC50 (µM)"],
 "data": [
  ["C=C1[C@H](CO)[C@@H](O)C[C@@H]1n1cnc2c(=O)[nH]c(N)nc21.O [ENTECAVIR]", 125]
]}

Attention now turns to another entry.
# CC50 lookup, item CC(C)(C)C(=O)OCOP(=O)(COCCn1cnc2c(N)ncnc21)OCOC(=O)C(C)(C)C [ADEFOVIR DIPIVOXIL]
365

---

Entries and their CC50 values follow.
EXPERIMENTAL_PROTOCOL: Effect on cell viability in human Huh7 cells
Assay type: cell-based, Huh-7

Please review the following examples before continuing.
{"columns": ["MOLECULE", "EXPERIMENTAL_ENDPOINT", "RESULT"],
 "data": [
  ["C[C@H](Cn1cnc2c(N)ncnc21)OCP(=O)(O)O [TENOFOVIR ANHYDROUS]", "CC50", "> 1000 µM"],
  ["Nc1ccn([C@@H]2CS[C@H](CO)O2)c(=O)n1 [LAMIVUDINE]", "CC50", "> 1000 µM"]
]}

Attention now turns to another entry.
# CC50 lookup, item "Nc1cc(OCCOCP(=O)(O)O)nc(N)n1"
> 1000 µM

From: ChEMBL document CHEMBL1143827
